Here, each record is paired with measured TGI data.
system: U251 CNS; assay: NCI tumour cell line growth inhibition, 48 h
Readout label: TGI

Compound | Result
CC1(C)C(N2CCOCC2)CS1(=O)=O (centres undefined) | > 10 µM
CC(=O)OCC1OC(n2c(C)c(C(C)=O)c(-c3ccco3)c(C#N)c2=S)C(OC(C)=O)C(OC(C)=O)C1OC(C)=O (centres undefined) | > 100 µM
COC(=O)C1=CC2C(=O)OC1C1C(=O)NC(=O)C21 (centres undefined) | > 100 µM
CC[C@H](C)[C@@H]([C@@H](CC(=O)N1CCC[C@H]1[C@H](OC)[C@@H](C)C(=O)NCCc1ccccc1)OC)N(C)C(=O)C(NC(=O)[C@H](C(C)C)N(C)C)C(C)C (some centres undefined) | 0.0068 µM
Cc1ccc2[nH]c3c(c(=O)n(C)c(=O)n3C)c2c1 | > 100 µM
O=c1nc2sc3ccccc3c(=O)n2[nH]1 | > 100 µM
C=C1CC[C@@H]2C13[C@@H]1[C@H](CC(=O)[C@@]23C)C1(C)C (some centres undefined) | > 100 µM
C/C(=C\COP(=O)(O)OP(=O)(O)O)CCCCCCOCc1ccccc1 | > 100 µM
C=C1C(=O)O[C@H]2[C@H]1CC/C(COC(=O)c1cccnc1N)=C\CC[C@@]1(C)O[C@@H]21 | 14.5 µM

====

system: DU-145 prostate; test: NCI tumour cell line growth inhibition, 48 h
Where a SMILES comes first, the peptide text is derived from it. [ ]: non-standard residue; d: D form. ΔPro = O=C(O)[CH]1C=CCN1
Entries and their measured TGI follow.
Readout label: TGI

Compound | Result
COc1ccc(Cc2cc(Cc3ccc(OC)cc3)cc(Cc3ccc(OC)cc3)c2)cc1 | > 100 µM
O=S1(=O)c2ccccc2N(c2ccccc2)c2nnnn21 | > 100 µM
O=C(O)C1C=CCN1C(=O)C1C=CCN1C(=O)C1C=CCN1 (stereo not given) (H-[ΔPro]-[ΔPro]-[ΔPro]-OH; configuration not given here) | > 100 µM
CCc1n[nH]c(=O)n1CC | > 100 µM
COc1ccc(N2C(=O)C(Cl)C2c2cc3cc(Br)ccc3nc2Cl)cc1 (stereo not given) | 21.2 µM

====

# TGI values compiled below
test system: NCI-H522 lung; assay: NCI tumour cell line growth inhibition, 48 h
Readout label: TGI

Compound | Result
COc1cccc(NC(=O)CSc2nnc(Cc3ccccc3)o2)c1 | > 100 µM
CN(C)[C@@H]1C(=O)C(C(=O)NCNc2nc3n[nH]nc3c(=O)[nH]2)=C(O)[C@@]2(O)C(=O)C3=C(O)c4c(O)cccc4[C@@](C)(O)[C@H]3C[C@@H]12 | > 80.3 µM
CC(=O)OCC1OC(n2c(C)c(C(C)=O)c(-c3ccco3)c(C#N)c2=S)C(OC(C)=O)C(OC(C)=O)C1OC(C)=O (stereo not drawn) | > 100 µM

====

tested on: HOP-92 NSCLC; test: NCI tumour cell line growth inhibition, 48 h
molecules and their reported TGI
Readout label: TGI (µM)

Molecule | Rel | Result
CNc1cc([N+](=O)[O-])ccc1C(=O)N1CCC[C@H]1CO | > | 100
c1ccc(-c2[nH]ncc2-c2ccnc(-c3ccc(OCCN4CCOCC4)cc3)c2)nc1 | > | 25
CCc1nc(C)cn1C(=O)OCc1nc2nc(Cl)nc(N3CCOCC3)c2[nH]1 | = | 2.41
CC(=O)NS(=O)(=O)c1ccc(NCc2cccc3c(=O)c4ccc(Cl)cc4oc23)cc1 | = | 69.7
NS(=O)(=O)c1ccc(N=Nc2ccc[nH]c2=O)cc1 | > | 100
Cc1nc2sc(C(=O)Nc3cccc(Br)c3C)c(N)c2cc1C(O)c1ccccc1 (stereo not given) | = | 16.5
CC(=O)OCC1OC(n2cccnc2=O)C(OC(C)=O)C1OC(C)=O (stereo not given) | > | 100
O=C(NC1CC1)c1c(O)[nH]c(=S)[nH]c1=O | > | 100
Cc1cccc(C)c1NC(=O)CCC(=O)NC(N)=NC#N | > | 100
CC(=O)[O-].CC(=O)[O-].O=C(N/N=C/c1cc(Cl)cc(Cl)c1[OH2+])c1ccncc1.[Mn+2] | = | 9.91
C=C1N(S(=O)(=O)c2ccc(C)cc2)C(=O)OCC12CCCC2 | > | 100
CN1CCC2(CC1)N=C(SCC(=O)Nc1cnc3ccccc3c1)C(c1ccc(Br)cc1)=N2 | = | 3.35
COc1ccc(OC)c(Nc2nc3nonc3nc2Nc2cccc(Br)c2)c1 | = | 3.55
CCCCC(=O)N(c1ccc(Nc2c3ccccc3nc3cc([N+](=O)[O-])ccc23)cc1)S(C)(=O)=O | = | 21.5
Clc1cccc(-c2nc3cccc4c3n2Cc2ncccc2-4)c1 | > | 100
Cn1[nH]cc2ccc3nc4ccccc4c(=O)c3c21 | > | 83
COC(=O)[C@@H]1CN(C(=O)CCc2ccccc2)C(=O)N1 | > | 100
Cc1cc(=O)oc2c1cc1ccc3cccc4ccc2c1c34 | > | 100
COc1cccc2c1C(=O)c1c(O)c3c(c(O)c1C2=O)C[C@@](O)(/C(CO)=N/NC(=O)CCCCCN1C(=O)C=CC1=O)C[C@@H]3O[C@H]1C[C@H](N)[C@H](O)[C@H](C)O1 | = | 7.01
C/C(=N\NC(=O)c1ccncc1)c1sc(-n2nc(-c3ccccc3)cc2-c2ccccc2)nc1C | > | 31.6

====

tested on: EKVX NSCLC; experiment: NCI tumour cell line growth inhibition, 48 h
Reported GI50 values follow for various molecules

Chem smiles | GI50
CCc1nc(C)cn1C(=O)OCc1nc2nc(Cl)nc(N3CCOCC3)c2[nH]1 | 1430 nM
Cc1sc(C(=O)c2cncnc2N[C@@H]2C[C@H](COS(N)(=O)=O)[C@@H](O)C2)cc1[C@@H]1NCCc2ccc(Cl)cc21 | 8880 nM
NCCCNc1nc2ccccc2c2c(=O)c3cc(F)ccc3sc12 | 1570 nM
NC(=O)c1c(NC(=O)c2cccs2)sc2c1CCC(=O)C2 | 2540 nM

====

tested on: OVCAR-3 ovarian; assay: NCI tumour cell line growth inhibition, 48 h
Note to self: values exactly at 6 µM are rule met. So TGI at or above 6 µM is rule met, below is rule not met.

Compound | Assigned category
C/C(=N\NC(=O)c1ccncc1)c1sc(-n2nc(-c3ccccc3)cc2-c2ccccc2)nc1C | rule met
Cc1ccc(C[As+](c2ccccc2)(c2ccccc2)c2ccccc2)cc1 | rule met
Cn1ncc(C#N)c1-c1ccc2c(c1)CN([C@H](CN)Cc1cccc(F)c1)C2=O | rule met
COc1cccc(Nc2ncnc3cc(NC(=O)CCl)ccc23)c1 | rule not met
CCc1n[nH]c(=O)n1CC | rule met
CCN(CC)C1Oc2cc3c(cc2C(c2cc(OC)c(O)c(OC)c2)C1C)OCO3 (stereo unspecified) | rule met
Cc1ccccc1NC(=O)/C(=N\NC(N)=S)C(C#N)c1ccccc1 (stereo unspecified) | rule met
CCOC(=O)C1=C(C)NC(=O)NC1c1ccc(OC)cc1OC (stereo unspecified) | rule met
Cc1ccc(N)cc1[As]=[As]c1cc(N)ccc1C (stereo unspecified) | rule not met
CC(C)c1oc(=O)cc2c1C(O)C1OC(=O)C3(C)C(O)C4OC4C2(C)C13 (stereo unspecified) | rule met
CCN(CC)CCNc1ccc2ncn3c4ccc(OC)cc4c(=O)c1c23 | rule met

====

test system: HT29 colon; assay: NCI tumour cell line growth inhibition, 48 h

Chem smiles | GI50
CCOc1cc(-c2nncn2C)ccc1Nc1ncc2cc(C)nc(NCC(C)(C)C)c2n1 | 1.78 µM
O=C1C=C(NCCO)c2nccc3c2c1nc1ccccc13 | 26.9 µM
C=C1C(=O)O[C@H]2[C@H]1CC/C(COC(=O)c1cccnc1N)=C\CC[C@@]1(C)O[C@@H]21 | 0.721 µM
COc1ccc(Cn2cc(COc3cc(/C=C/C(=O)c4cc(OC)c(OC)c(OC)c4)ccc3OC)nn2)cc1 | 3.65 µM
COC(=O)[C@H](Cc1cn(C)cn1)NC(=O)[C@H](CC(=O)OCc1ccccc1)NC(=O)Nc1cc(C(F)(F)F)cc(C(F)(F)F)c1 | 13.9 µM
NC(=O)c1c(NC(=O)c2cccs2)sc2c1CCC(=O)C2 | 3.12 µM
COc1cc(C(=O)/C=C/c2cc(-c3ccc4c(c3)OCO4)n[nH]2)cc(OC)c1OC | 2.45 µM
O=C(Nc1nc(-c2ccc(Cl)cc2)cs1)c1cc(O)c(O)c(O)c1 | 572 µM
O=C(/C=C/c1ccccc1)c1cccc2ccccc12 | 3.69 µM
COc1ccc2c(c1)C(=Nc1ccc(F)c(Cl)c1)c1c-2c(Nc2ccc(F)c(Cl)c2)nc2ccccc12 | > 100 µM
CCN(CC)CCNC(=O)c1cccc2c1-c1ccccc1C2=O | > 100 µM
CCCCC(=O)N(c1ccc(Nc2c3ccccc3nc3cc([N+](=O)[O-])ccc23)cc1)S(C)(=O)=O | 13.6 µM
COc1cccc2c1C(=O)c1c(O)c3c(c(O)c1C2=O)C[C@@](O)(/C(CO)=N/NC(=O)CCCCCN1C(=O)C=CC1=O)C[C@@H]3O[C@H]1C[C@H](N)[C@H](O)[C@H](C)O1 | 1.37 µM
COc1ccc(OC)c(Nc2nc3nonc3nc2Nc2cccc(Br)c2)c1 | 1.13 µM

The measured values listed here are drawn from PubChem BioAssay (NCI).
